assayed_system: human Tissue Factor on MDA-MB-231 cells (human, UniProt P13726 33-295)
assay_text: cell-based or functional assay

binder: 43B (antibody, V domains shown) VH: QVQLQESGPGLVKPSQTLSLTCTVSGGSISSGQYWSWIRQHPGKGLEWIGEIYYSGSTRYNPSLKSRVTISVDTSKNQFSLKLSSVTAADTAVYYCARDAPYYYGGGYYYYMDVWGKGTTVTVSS VL: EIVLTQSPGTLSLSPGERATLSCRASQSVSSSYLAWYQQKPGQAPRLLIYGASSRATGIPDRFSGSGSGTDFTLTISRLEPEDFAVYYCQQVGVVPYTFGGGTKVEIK
% IL8, 16 nM Ab [%]: 5

binder: 54E (antibody, V domains shown, Human anti-TF IgG1) VH: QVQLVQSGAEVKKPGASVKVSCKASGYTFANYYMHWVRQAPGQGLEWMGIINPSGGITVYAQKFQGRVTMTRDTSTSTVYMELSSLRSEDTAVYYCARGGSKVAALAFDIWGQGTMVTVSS VL: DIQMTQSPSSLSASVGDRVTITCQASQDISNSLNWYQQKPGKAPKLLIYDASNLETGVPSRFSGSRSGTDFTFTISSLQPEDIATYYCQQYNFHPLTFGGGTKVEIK
% IL8, 16 nM Ab [%]: 3

binder: 25G9 (antibody, human IgG1, kappa, V domains shown) VH: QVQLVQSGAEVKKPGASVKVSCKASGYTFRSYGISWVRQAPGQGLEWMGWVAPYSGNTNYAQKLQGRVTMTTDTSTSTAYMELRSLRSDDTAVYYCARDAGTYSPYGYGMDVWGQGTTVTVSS VL: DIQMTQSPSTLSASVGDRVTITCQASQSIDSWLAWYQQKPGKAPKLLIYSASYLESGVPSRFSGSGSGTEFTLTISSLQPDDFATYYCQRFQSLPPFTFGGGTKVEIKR
% IL8, 16 nM Ab [%]: 15

binder: 25A (antibody, V domains shown, Human anti-TF IgG1) VH: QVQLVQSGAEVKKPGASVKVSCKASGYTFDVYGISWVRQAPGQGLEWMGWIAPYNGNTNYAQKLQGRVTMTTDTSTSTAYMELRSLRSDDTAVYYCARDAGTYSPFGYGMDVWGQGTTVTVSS VL: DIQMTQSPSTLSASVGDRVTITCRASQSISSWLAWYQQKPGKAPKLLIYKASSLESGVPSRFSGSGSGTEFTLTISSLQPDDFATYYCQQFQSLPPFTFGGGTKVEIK
% IL8, 16 nM Ab [%]: 10

binder: 25G (antibody, human IgG1, kappa, V domains shown, Human anti-TF IgG1) VH: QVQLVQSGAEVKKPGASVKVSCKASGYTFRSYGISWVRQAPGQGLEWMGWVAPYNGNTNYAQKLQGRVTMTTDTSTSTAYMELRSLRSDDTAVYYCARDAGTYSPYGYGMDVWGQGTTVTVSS VL: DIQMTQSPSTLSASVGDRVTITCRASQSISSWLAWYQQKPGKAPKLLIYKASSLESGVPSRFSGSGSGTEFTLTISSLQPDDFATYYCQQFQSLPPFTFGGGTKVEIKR
% IL8, 16 nM Ab [%]: 16
